Each item that follows carries a reported pIC50.
Assay: Cytotoxicity against wild type human KB-3-1 cells after 4 days by MTT assay
Type: functional, cell-based
Settings: KB 3-1, 96 h
pIC50: −log10 of the molar value.
observable: pIC50

CN(C)CCc1cc2cc(c1)CNC(=O)c1coc(n1)-c1coc(n1)-c1cccc(n1)-c1nc(co1)-c1nc(co1)C(=O)NC2 | 7.40
CC(C)[C@@H]1NC(=O)c2coc(n2)-c2coc(n2)-c2coc(n2)[C@H](C(C)C)NC(=O)c2coc(n2)-c2coc(n2)-c2coc1n2 [HEXAOXAZOLE DIVALINE] | 6.52
CC(C)[C@@H]1NC(=O)c2coc(n2)-c2coc(n2)-c2cccc(c2)-c2cccc(c2)-c2nc(co2)-c2nc(co2)CNC1=O | 5.30
CN(C)CC[C@@H]1NC(=O)c2coc(n2)-c2coc(n2)-c2cccc(c2)-c2cccc(c2)-c2nc(co2)-c2nc(co2)CNC1=O | 5.46
O=C1CNC(=O)c2coc(n2)-c2coc(n2)-c2cccc(c2)-c2cccc(c2)-c2nc(co2)-c2nc(co2)CN1 | 5.64
NCC[C@@H]1NC(=O)c2coc(n2)-c2coc(n2)-c2cccc(c2)-c2cccc(c2)-c2nc(co2)-c2nc(co2)CNC1=O | 5.40

* * *

Species on record: Homo sapiens
Assay: Binding affinity to human d(TTAGGG)4 assessed as thermal transition temperature at 20 uM preincubated for 5 mins at 90 degC followed by cooling at room temperature measured after 4 hrs by UV spectrophotometric analysis in presence of 50 mM K+ (reference value: 55.3 degC)
observable: T (°C)

CC(C)[C@@H]1NC(=O)c2coc(n2)-c2coc(n2)-c2coc(n2)[C@H](CCN(C)C)NC(=O)c2coc(n2)-c2coc(n2)-c2coc1n2 | 92.7
O=C1N[C@@H](Cc2ccccc2)C(=O)NCc2coc(n2)-c2coc(n2)-c2cccc(c2)-c2cccc(c2)-c2nc(co2)-c2nc1co2 | 58.1
CC(C)[C@@H]1NC(=O)c2coc(n2)-c2coc(n2)-c2cccc(c2)-c2cccc(c2)-c2nc(co2)-c2nc(co2)CNC1=O | 61.7
CN(C)CCc1cc2cc(c1)CNC(=O)c1coc(n1)-c1coc(n1)-c1cccc(n1)-c1nc(co1)-c1nc(co1)C(=O)NC2 | 91.2
CC(C)(C)OC(=O)NCC[C@@H]1NC(=O)c2coc(n2)-c2coc(n2)-c2cccc(c2)-c2cccc(c2)-c2nc(co2)-c2nc(co2)CNC1=O | 57.7
NCC[C@@H]1NC(=O)c2coc(n2)-c2coc(n2)-c2cccc(c2)-c2cccc(c2)-c2nc(co2)-c2nc(co2)CNC1=O | 68.2
CC(C)[C@@H]1NC(=O)c2coc(n2)-c2coc(n2)-c2coc(n2)C/C=C/c2coc(n2)-c2coc(n2)-c2coc1n2 | 92.2
O=C1CNC(=O)c2coc(n2)-c2coc(n2)-c2cccc(c2)-c2cccc(c2)-c2nc(co2)-c2nc(co2)CN1 | 60.1
CN(C)CC[C@@H]1NC(=O)c2coc(n2)-c2coc(n2)-c2cccc(c2)-c2cccc(c2)-c2nc(co2)-c2nc(co2)CNC1=O | 63.7
